TEST TARGET: human KHK-C (Homo sapiens (Human), UniProt P50053)
PROTOCOL DESCRIPTION: KHK Biochemical Assay (IC50), ADP-Glo, KHK-C
TEST CONTEXT: average of at least two separate assays
IC50 values, listed per item
Number only, in µM; omit the unit.

C[C@H]1CCN1c1nc2c(c(-c3cccc(C4(O)CS(=O)(=O)C4)c3)n1)CCC2: 0.0328

Query block: Supply recorded IC50 for C[C@H]1[C@H](O)CN1c1nc(-c2ccc3c(c2)OC[C@]32COC(=O)N2)c2c(n1)C(F)(F)CC2 (single isomer, unassigned) here.
Result block: 0.012

Query block: Input C[C@@H](NS(C)(=O)=O)c1cccc(-c2nc(N3C[C@@H](O)[C@@H]3C)nc3c2CCC3(F)F)c1 , output reported IC50.
Result block: 0.0249

----------
TEST TARGET: human KHK-A (Homo sapiens (Human), UniProt P50053)
Sequence (P50053 other isoform, or with tags, fused parts or gaps): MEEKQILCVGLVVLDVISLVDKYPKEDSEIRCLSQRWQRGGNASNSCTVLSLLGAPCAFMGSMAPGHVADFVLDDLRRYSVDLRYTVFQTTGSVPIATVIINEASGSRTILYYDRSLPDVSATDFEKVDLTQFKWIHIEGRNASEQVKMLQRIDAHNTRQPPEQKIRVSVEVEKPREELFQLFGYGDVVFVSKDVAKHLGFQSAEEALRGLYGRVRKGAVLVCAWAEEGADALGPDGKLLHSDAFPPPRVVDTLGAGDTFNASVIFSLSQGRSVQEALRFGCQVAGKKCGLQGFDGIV
PROTOCOL DESCRIPTION: KHK Biochemical Assay (IC50), ADP-Glo, KHK-A
TEST CONTEXT: average of at least two separate assays
QUANTITY MEASURED: IC50 (nM)
Report only the number, with the unit nM understood.

Below: 5 molecules and their reported IC50.
C[C@H]1[C@H](O)CN1c1nc(-c2ccc3c(c2)CC[C@]32NC(=O)N(CCO)C2=O)c2c(n1)C(F)(F)CC2: 16.7
C[C@H]1[C@H](O)CN1c1nc(-c2ccc(OC3CC3)c([S@](C)(=N)=O)c2)c2c(n1)C(F)(F)CC2 (single isomer, unassigned): 6.2
C[C@H]1[C@H](O)CN1c1nc(-c2ccc3c(c2)OCC[C@@H]3NS(C)(=O)=O)c2c(n1)C(F)(F)CC2 (single isomer, unassigned): 7
C[C@H]1CCN1c1nc(-c2ccc(C(N)=O)cc2)c2[nH]ncc2n1: 130
CC(C)N1C(=O)NC2(COc3cc(-c4nc(N5C[C@@H](O)[C@@H]5C)nc5c4CCC5(F)F)ccc32)C1=O (stereo partly drawn): 45.4

Now consider a different molecule.
Query block: For the molecule C[C@H]1[C@H](F)CN1c1nc(-c2ccc3c(c2)S(=O)(=O)C[C@@H]3NS(C)(=O)=O)c2c(n1)C(F)(F)CC2 (single isomer, unassigned) , report IC50.
Result block: 2.3

----------
TEST TARGET: human KHK-A (Homo sapiens (Human), UniProt P50053)
PROTOCOL DESCRIPTION: KHK Biochemical Assay (IC50), ADP-Glo, KHK-A
TEST CONTEXT: ADP-Glo; average of at least two separate assays
QUANTITY MEASURED: pIC50
Entry type: numeric. Quantity: pIC50, the -log10 of concentration in molar units.

Some compounds with recorded pIC50:
C[C@H]1CCN1c1nc2c(c(-c3ccc4c(c3)CCNC4)n1)CCC2: 8.39
CC(=O)N1C[C@H](C(=O)O)[C@@H](c2cccc(-c3nc(N4CC[C@@H]4C)nc4c3CCC4)c2)C1 (mixture of isomers): 7.08
Cc1ccc(-c2nc(N3CC[C@@H]3C)nc3c2CCC3)cc1S(N)(=O)=O: 7.40
COc1ccc(-c2nc(N3CC[C@@H]3C)nc3c2CCC3)cc1S(=N)(=O)CCN(C)C(C)=O (some centres unmarked): 7.34
CNS(=O)(=O)c1cccc(-c2nc(N3CC[C@@H]3C)nc3c2CCC3)c1: 7.43

Query block: Please look at this compound and report its pIC50: C[C@H]1CCN1c1nc2c(c(-c3ccc4nc(C(F)(F)F)[nH]c4c3)n1)CCC2
Result block: 6.10

Query block: Answer with the recorded pIC50 for the compound listed here: C[C@H]1CCN1c1nc2c(c(-c3ccc(C(N)=O)c(C(=O)c4ccccc4)c3)n1)CCC2
Result block: 6.89

Query block: Give reported pIC50 value for C[C@H]1CCN1c1nc(-c2ccc(C3(N)COC3)cc2)c2c(n1)C(F)(F)CC2
Result block: 8.34

----------
TEST TARGET: human KHK-C (Homo sapiens (Human))
PROTOCOL DESCRIPTION: KHK Biochemical Assay (IC50), ADP-Glo, KHK-C
TEST CONTEXT: ADP-Glo; average of at least two separate assays
// values below are reported IC50
Give your result in nM as a bare value.

// below: answered molecules
NC(=O)c1ccc(-c2nc(N3CCCC3)nc3c2CCC3)cc1: 2430
C[C@H]1CCN1c1nc2c(c(-c3ccc(C45CC(C(N)=O)(C4)C5)cc3)n1)CCC2: 129
C[C@H]1CCN1c1nc2c(c(-c3cccc([C@H]4C[C@@H]4C(=O)O)c3)n1)CCC2 (single isomer, unassigned): 3.3

Now look at this entry.
Query block: Tell me IC50 reported for C[C@H]1[C@H](O)CN1c1nc(-c2ccc3c(c2)CCCNC3=O)c2c(n1)C(F)(F)CC2
Result block: 5.4

----------
TEST TARGET: KHK-C expressed in NRK-52E cells (Homo sapiens (Human), UniProt P50053)
Sequence (P50053 whole entry): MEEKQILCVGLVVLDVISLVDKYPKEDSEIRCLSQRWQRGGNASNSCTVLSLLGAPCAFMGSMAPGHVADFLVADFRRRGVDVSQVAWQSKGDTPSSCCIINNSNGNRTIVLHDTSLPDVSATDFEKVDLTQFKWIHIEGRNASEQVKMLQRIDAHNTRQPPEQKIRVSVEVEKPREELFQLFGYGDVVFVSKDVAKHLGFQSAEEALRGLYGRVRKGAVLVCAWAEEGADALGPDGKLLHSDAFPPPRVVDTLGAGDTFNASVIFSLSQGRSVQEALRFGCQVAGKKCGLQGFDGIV
PROTOCOL DESCRIPTION: KHK-C Cell-based Assay (EC50), NRK CTG, fructose-mediated ATP-depletion
// assign true (1) if EC50 falls strictly below 100 nM, else false (0) (ties count as false (0))

Query block: hey, is EC50 for C[C@H]1CCN1c1nc2c(c(-c3cccc(C(=O)NCCS(N)(=O)=O)c3)n1)CCC2 [Example 219] lower than 100 nM or not?
Result block: false (0)

Query block: Given C[C@H]1[C@H](O)CN1c1nc(-c2ccc(OC(F)F)c([S@@](C)(=N)=O)c2)c2c(n1)C(F)(F)CC2 (single isomer, unassigned) [Example 533] , is recorded EC50 strictly lower than 100 nM?
Result block: true (1)

Query block: Decide: EC50 of C[C@@H]1COc2cc(-c3nc(N4C[C@@H](O)[C@@H]4C)nc4c3CCC4(F)F)ccc2C(=O)N1 [Example 180] strictly below 100 nM?
Result block: false (0)

Query block: Does the reported EC50 of the following compound sit strictly below 100 nM? C[C@H]1[C@H](O)CN1c1nc(-c2cccc(S(C)(=N)=O)c2)c2c(n1)C(F)(F)CC2 (stereo partly drawn) [Example 464]
Result block: true (1)

Query block: Below 100 nM on EC50? Entry C[C@H]1CCN1c1nc2c(c(-c3ccc(C(=O)NCCO)cc3)n1)CCC2 [Example 91]
Result block: false (0)

Query block: # strict comparison: is reported EC50 < 100 nM? input = C[C@H]1CN(c2nc3c(c(-c4ccc(C(N)=O)cc4)n2)CCC3)[C@H]1C [Example 107]
Result block: false (0)

Query block: Hi there! Is EC50 for C[C@H]1C[C@H](C)N1c1nc2c(c(-c3cccc(S(N)(=O)=O)c3)n1)CCC2 [Example 208] below 100 nM, do you know?
Result block: true (1)

Query block: # strict comparison: is reported EC50 < 100 nM? input = C[C@H]1[C@H](O)CN1c1nc(-c2ccc3c(c2)OC[C@@]32CN(C)C(=O)N2)c2c(n1)C(F)(F)CC2 (single isomer, unassigned) [Example 702]
Result block: true (1)

Query block: Given the entry C[C@H]1CCN1c1nc2c(c(-c3nc4ccccc4n3C)n1)CCC2 [Example 391] , would its reported EC50 be below 100 nM?
Result block: false (0)

Query block: Please let me know if C[C@H]1[C@H](O)CN1c1nc(-c2ccc3c(c2)OC[C@@]32NC(=O)N(C)C2=O)c2c(n1)C(F)(F)CC2 (single isomer, unassigned) [Example 826] shows EC50 below 100 nM.
Result block: true (1)

Query block: Does this compound meet the criterion EC50 < 100 nM? C[C@H]1CCN1c1nc2c(c(-c3cccc(CCC(=O)O)c3)n1)CCC2 [Example 4]
Result block: false (0)

Query block: In the record for C[C@H]1CCN1c1nc2c(c(-c3ccc4c(c3)CC(=O)N4)n1)CCC2 [Example 248] , is EC50 less than 100 nM?
Result block: false (0)

Query block: Regarding C[C@@H]1N(c2nc(-c3ccc(C4(N)COC4)cc3)c3c(n2)C(F)(F)CC3)CC1(F)F [Example 470] , kindly confirm whether its EC50 is beneath 100 nM.
Result block: true (1)

Query block: Is it true that EC50 reported for C[C@H]1CCN1c1nc2c(c(-c3cccc(CCC(N)=O)c3)n1)CCC2 [Example 29] is less than 100 nM?
Result block: false (0)

Query block: Lab log: compare recorded EC50 with 100 nM; is it strictly lower for C[C@H]1CCN1c1nc2c(c(-c3cccc(CS(C)(=O)=O)c3)n1)CCC2 [Example 88] ?
Result block: false (0)

----------
# pKa per record follows
PROTOCOL DESCRIPTION: pKa analysis by capillary electrophoresis (pKa PRO Analyzer, co-solvent method)
Assay type: physicochemical
TEST CONTEXT: methanol/aqueous co-solvent buffers, co-solvent method (60% to 30% methanol buffers), pH range 1.7-11.2, read-out: 2nd pKa
In your answer, state the number alone without any accompanying words.

C[C@H]1CCN1c1nc2c(c(-c3ccc4c(c3)CCNC4)n1)CCC2: 9.19

Query block: Tell us which pKa value is on record for C[C@H]1CCN1c1nc2c(c(-c3cn4cnc(C(=O)O)c4s3)n1)CCC2
Result block: 4.22

Query block: Fill in pKa for record C[C@H]1CCN1c1nc2c(c(-c3ccc4c(N)nc(N)nc4c3)n1)CCC2
Result block: 6.43

Query block: Specify pKa for C[C@H]1CCN1c1nc2c(c(-c3ccccn3)n1)CCC2 and stop.
Result block: 4.48

Query block: Supply recorded pKa for C[C@H]1CCN1c1nc2c(c(-c3cn4ccnc4s3)n1)CCC2 here.
Result block: 5.35

Query block: State its pKa for this compound: C[C@H]1CCN1c1nc2c(c(-c3ccncc3)n1)CCC2
Result block: 4.74

Query block: // Input: C[C@H]1CCN1c1nc2c(c(-c3cccc(CN4CCC4)c3)n1)CCC2 . Output its pKa only.
Result block: 9.16

Query block: Provide one value: measured pKa of C[C@H]1CCN1c1nc2c(c(-c3ccc(C4(N)CC4)cc3)n1)CCC2
Result block: 8.01

Query block: Name the recorded pKa of the compound listed here: C[C@H]1[C@H](O)CN1c1nc2c(c(-c3cccc(S(N)(=O)=O)c3)n1)CCC2
Result block: 9.45

Query block: For the compound C[C@H]1CCN1c1nc2c(c(-c3ccc4c(N)nccc4c3)n1)CCC2 , give its reported pKa.
Result block: 6.64

This collection of values is drawn from patent US12410160B2.
